# Kd annotations
TESTED_TARGET: T1, mouse Ang2 (Accession # NP-031452) (R&D Systems) (mouse, UniProt O35608 19-496, limits assumed)
T1 construct: Bought protein; also called mAng2
T1 sequence (looked up): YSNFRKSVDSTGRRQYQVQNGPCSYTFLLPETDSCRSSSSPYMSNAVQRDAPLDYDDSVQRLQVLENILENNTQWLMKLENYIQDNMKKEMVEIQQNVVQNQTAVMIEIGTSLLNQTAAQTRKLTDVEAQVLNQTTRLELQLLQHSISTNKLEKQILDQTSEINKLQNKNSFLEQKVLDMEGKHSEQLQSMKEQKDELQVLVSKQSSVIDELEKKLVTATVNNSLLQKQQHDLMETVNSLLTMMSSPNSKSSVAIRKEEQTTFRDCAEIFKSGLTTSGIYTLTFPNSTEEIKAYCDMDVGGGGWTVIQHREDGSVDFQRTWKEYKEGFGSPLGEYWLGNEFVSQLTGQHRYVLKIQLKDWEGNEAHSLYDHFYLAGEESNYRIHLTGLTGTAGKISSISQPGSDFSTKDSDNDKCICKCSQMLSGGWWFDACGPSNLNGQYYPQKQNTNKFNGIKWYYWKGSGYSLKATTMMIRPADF
TEST_SUMMARY: ELISA, antigen coated, scFv, anti-HA-HRP; 50% binding concentration (Kd)

BINDER: SAIT-ANG-2-AB-3-D3 (scFv form) (scFv, V domains shown, scFv from a phage display library) VH: EVQLLESGGGLVQPGGSLRLSCAASGFTFSDYDMSWVRQAPGKGLEWVSGISSDDGNTYYADSVKGRFTISRDNSKNTLYLQMNSLRAEDTAVYYCARPTIDKYTLRGYYSYGMDVWGQGTLVTVSS VL: QSVLTQPPSASGTPGQRVTISCTGSSSNIGSNYVSWYQQLPGTAPKLLIYSDNKRPSGVPDRFSGSKSGTSASLAISGLRSEDEADYYCGTWDDSLNGYVFGGGTKLTVLG
Kd: 37.8 nM

BINDER: SAIT-ANG-2-AB-2-E6 (scFv form) (scFv, V domains shown, scFv from a phage display library, partly purified from E. coli periplasm on Ni-NTA and detected with anti-HA) VH: EVQLLESGGGLVQTGGSLRLSCAASGFTFSDYAMSWVRQAPGKGLEWVSAIYPDSGNKYYADSVKGRFTISRDNSKNTLYLQMNSLRAEDTAVYYCARHSSDPKVKSGYYDDGMDVWGQGTLVAVSS VL: QSVLTQPPSASGTPGQRVTISCSGSSSNIGNNAVNWYQQLPGTAPKLLIYADSNRPSGVPDRFSGSKSGTSASLAISGLRSEDEADYYCGSWDYSLSGYVFGGGTKLTVLG
Kd: 5.1 nM

BINDER: SAIT-ANG-2-AB-4-F11 (scFv form) (scFv, V domains shown, scFv from a phage display library) VH: EVQLLESGGGLVQTGGSLRLSCAASGFTFSDYAMSWVRQAPGKGLEWVSSIYPDDGNTYYADSVKGRFTISRDNSKNTLYLQMNSLRAEDTAVYYCAKHPVRLNLHPMYYYYGMDVWGQGTLVTVSS VL: QSVLTQPPSASGTPGQRVTISCTGSSSNIGNNAVSWYQQLPGTAPKLLIYSDSQRPSGVPDRFSGSKSGTSASLAISGLRSEDEADYYCATWDYSLSAYVFGGGTKLTVLG
Kd: 20.7 nM

BINDER: SAIT-ANG-2-AB-4-C11 (scFv form) (scFv, V domains shown, scFv from a phage display library) VH: EVQLLESGGGLVQPGGSLRLSCAASGFTFSDYAMSWVRQAPGKGLEWVSSIYPDDGNTYYADSVKGRFTISRDNSKNTLYLQMNSLRAEDTAVYYCARHTSHHTSIDGYYYYGMDGWGQGTLVTVSS VL: QSVLTQPPSASGTPGQRVTISCTGSSSNIGNNDVSWYQQLPGTAPKLLIYSDSKRPSGVPDRFSGSKSGTSASLAISGLRSEDEADYYCGSWDYSLSGYVFGGGTKLTVLG
Kd: 28.6 nM
